- Tested on: BT-549 breast
- measurement-protocol: NCI-60 one-dose screen, 48 h (100 = growth as untreated, 0 = no growth, -100 = all killed)
- conditions-used: 10 µM unless noted
About 83,000 compounds went through this panel and 20% of them were active in at least one assay; those are over-represented in the sample as a whole.
measurement-type: growth (%)

molecule	unit	data-value
CC(C)(C)c1ccc(C(=O)N/N=C/c2ccc(O)cc2O)cc1	%	32
Nc1nc(C(=O)N/N=C/c2ccc(F)cc2)nn1-c1ccc(S(N)(=O)=O)cc1	%	114
CSc1ccc(N2C(=N)C(=S)N(c3ccc(C)cc3)C2=O)cc1	%	72.2
Cc1cc2oc(/C=C/c3ccccc3)cc(=O)c2c(C)c1Cl	%	101
C=CCN=c1sc(-c2ccc3ccccc3c2)cn1NC(=O)c1cc2ccc1CCc1ccc(cc1)CC2	%	53.9
O=CCCCOCc1ccccc1	%	103
CCN1C2CCC1/C(=C\c1ccccc1)C(=O)/C2=C/c1ccccc1	%	48.6

###

Item-by-item account of growth
- System: COLO 205 colon
- measurement-protocol: NCI-60 one-dose screen, 48 h (100 = growth as untreated, 0 = no growth, -100 = all killed)
- conditions-used: 10 µM unless noted
About 83,000 compounds went through this panel and 20% of them were active in at least one assay; those are over-represented in the sample as a whole.
measurement-type: growth (%)

compound	unit	data-value
Nc1cccc(-c2ccc(COc3ccc(CC4SC(=O)NC4=O)cc3)cc2)c1 (stereo not drawn)	%	101
COc1ccc(Nc2ncc(I)c(NCCCNC(=O)C3CCC3)n2)cc1	%	-59.3
CCN(CC)CCCC(Cc1ccccc1)Nc1c2ccc(Cl)cc2nc2ccc(OC)cc12 (stereo not drawn)	%	-42.3

###

- Tested on: SW-620 colon
- measurement-protocol: NCI-60 one-dose screen, 48 h (100 = growth as untreated, 0 = no growth, -100 = all killed)
- conditions-used: 10 µM unless noted
The panel holds about 83,000 compounds, 20% with a hit somewhere; the sample as a whole holds those more often.
Output t for growth not less than 40%; output f otherwise.

molecule	class-name
CCN(CC)CCOc1ccc(C(=O)/C=C\c2ccc(Cl)cc2Cl)cc1	f
CCOC(=O)C1=C(CC(O)c2ccc(OC)cc2OC)NC(=O)NC1c1ccccc1 (centres undefined)	t
Cc1ccc2c(c1)sc1nc(-c3c[nH]c4ccccc34)c(Nc3ccccc3)n12	t
CCCCCc1ccc(S(=O)(=O)Nc2ccc3nc(N)oc3c2)cc1	t
O=C(/C=C/c1ccccc1Cl)c1cccc(OCCCCOc2cccc(C(=O)/C=C/c3ccccc3Cl)c2)c1	t
Cc1cc(C(=O)CCCC(=O)c2cc(C)c(O)c(C)c2)cc(C)c1O	t
C[N+]1=C(/C=C/c2ccccc2Cl)C(C)(C)c2ccccc21	t
CCOc1ccc(NC(=O)Nc2ccc(OCC)cc2)cc1	t
COc1ccccc1/C=C/C(=O)Nc1ccc(F)cc1	t
COc1cc(N2C(=O)[C@H](Cl)C2c2ccc(SC)cc2)cc(OC)c1OC (some centres undefined)	f
COc1ccc(/C=C(\C(=O)NCc2cccnc2)S(=O)(=O)c2ccccc2)cc1OC	f
N=C(N)c1ccc(-c2ccc(-c3cc(Cl)cc(Cl)c3)s2)s1	f
CC(C)C1C2=C(NCCN1C(=O)c1ccncc1)C(C)(C)N(Cc1ccccc1)C2=O (centres undefined)	t
CC(O)Cc1c[nH]c(=O)[nH]c1=O (centres undefined)	t
Cn1cc(-c2csc(-c3cn(C)c4ccccc34)n2)c2cnccc21	f
CCn1cc(C(=O)N/N=C/c2ccccc2)c(=O)c2cc(F)c(N3CCNC(C)C3)c(F)c21 (centres undefined)	f
COc1cc2c(c(OC)c1OC)C(=O)CC(c1cccc(C(=O)Nc3ccccc3Br)c1)O2 (centres undefined)	t
c1ccc(-c2nc3ccccc3[nH]2)c(OCCCCCOc2ccccc2-c2nc3ccccc3[nH]2)c1	f
Oc1ccc(-c2nc3ccc4[nH]ncc4c3c3c2CCCC3)c(F)c1	f
COc1cc(-c2cc(-c3ccc(Nc4nc(Nc5ccc(Cl)cc5)nc(Nc5ccc(Cl)cc5)n4)cc3)no2)cc(OC)c1OC	t
CCOC(=O)c1cnn(CC(C)O)c1NC(=O)NCc1ccccc1C(F)(F)F (centres undefined)	t
CN1CCOCCN(C)Cc2ccc3ccc(cc3c2)CN(C)CCOCCN(C)Cc2ccc3ccc(cc3c2)C1	f
CS(=O)(=O)Nc1cc(-c2ccc3ncnc(Nc4ccc(OCc5ccccn5)c(Cl)c4)c3c2)cnc1Cl	f
O=C1NC(=O)C(c2coc3cc(Br)ccc23)=C1c1c[nH]c2ccccc12	f
Cn1c(=O)[nH]c(=O)c2nc3c(nc21)-c1ccccc1C3=O	t
COc1ccc(C2C3=C(COC3=O)N(CCO)c3cc4c(cc32)OCO4)cc1OC (centres undefined)	t
CN(C)CCCC1(c2ccc(F)cc2)OCc2cc(-c3csc4ccccc34)ccc21 (centres undefined)	f
O=C(Nc1cc(Cl)cc(Cl)c1)Oc1c(Cl)c(Cl)c(Cl)c(Cl)c1Cl	t
CC12OC(CC(O)C1O)n1c3ccccc3c3c4c(c5c6ccccc6n2c5c31)C(=O)N(CCN1CCCC1)C4=O (centres undefined)	f
